// values below are reported pIC50
Test system: A549
METHOD: Antiproliferative activity against human A549 cells after 72 hrs by CCK-8 assay
Assay type: functional, cell-based
MEASUREMENT_CONTEXT: A549, 72 h
pIC50: −log10 of the molar value.

| SMILES_TEXT | OPERATOR_SYMBOL | pIC50 |
| --- | --- | --- |
| C[C@@H]1CC[C@H]2[C@@H](O)[C@H](OC(=O)CCC(=O)O[C@@H]3O[C@@H]4O[C@@]5(C)CC[C@H]6[C@H](C)CC[C@@H]([C@H]3O)[C@@]46OO5)O[C@@H]3O[C@@]4(C)CC[C@@H]1[C@]32OO4 | = | 4.34 |
| C[C@@H]1CC[C@@H]2[C@]34OO[C@](C)(CC[C@@H]13)O[C@H]4O[C@]2(C)C(=O)OCCCCCOC(=O)[C@@]1(C)O[C@@H]2O[C@@]3(C)CC[C@H]4[C@H](C)CC[C@@H]1[C@@]24OO3 | = | 4.92 |
| C[C@@H]1CC[C@@H]2[C@]34OO[C@](C)(CC[C@@H]13)O[C@H]4O[C@]2(C)C(=O)NCCCCNC(=O)[C@@]1(C)O[C@@H]2O[C@@]3(C)CC[C@H]4[C@H](C)CC[C@@H]1[C@@]24OO3 | < | 4.30 |
| C[C@@H]1CC[C@@H]2[C@]34OO[C@](C)(CC[C@@H]13)O[C@H]4O[C@]2(C)C(=O)OCCCCOC(=O)[C@@]1(C)O[C@@H]2O[C@@]3(C)CC[C@H]4[C@H](C)CC[C@@H]1[C@@]24OO3 | = | 5.18 |
| C[C@@H]1CC[C@@H]2[C@]34OO[C@](C)(CC[C@@H]13)O[C@H]4O[C@]2(C)COP(=O)(OC[C@@]1(C)O[C@@H]2O[C@@]3(C)CC[C@H]4[C@H](C)CC[C@@H]1[C@@]24OO3)Oc1ccccc1 | = | 5.20 |
| C[C@@H]1CC[C@@H]2[C@]34OO[C@](C)(CC[C@@H]13)O[C@H]4O[C@]2(C)C(=O)NCCCCCCNC(=O)[C@@]1(C)O[C@@H]2O[C@@]3(C)CC[C@H]4[C@H](C)CC[C@@H]1[C@@]24OO3 | < | 4.30 |
| C[C@@H]1CC[C@@H]2[C@]34OO[C@](C)(CC[C@@H]13)O[C@H]4O[C@]2(C)C(=O)Nc1cccc(NC(=O)[C@@]2(C)O[C@@H]3O[C@@]4(C)CC[C@H]5[C@H](C)CC[C@@H]2[C@@]35OO4)c1 | < | 4.30 |

----------
Test system: A549
METHOD: Antiproliferative activity against human A549 cells after 72 hrs by CCK-8 assay
Type: functional, cell-based
MEASUREMENT_CONTEXT: A549, 72 h
// values below are reported IC50

| SMILES_TEXT | ENDPOINT_UNIT | IC50 |
| --- | --- | --- |
| C[C@@H]1CC[C@@H]2[C@]34OO[C@](C)(CC[C@@H]13)O[C@H]4O[C@]2(C)C(=O)OCc1ccccc1COC(=O)[C@@]1(C)O[C@@H]2O[C@@]3(C)CC[C@H]4[C@H](C)CC[C@@H]1[C@@]24OO3 | µM | 21.7 |
| C[C@@H]1CC[C@@H]2[C@]34OO[C@](C)(CC[C@@H]13)O[C@H]4O[C@]2(C)C(=O)OCCCCCCCOC(=O)[C@@]1(C)O[C@@H]2O[C@@]3(C)CC[C@H]4[C@H](C)CC[C@@H]1[C@@]24OO3 | µM | 7.71 |
